Please go through the items and note down their IC50.
- Tgt: 17,20 lyase (CYP17) (Homo sapiens)
- Construct: endogenous in cells; host or cells: H295R human adrenocortical carcinoma cells
- Sequence (P05093 1-508): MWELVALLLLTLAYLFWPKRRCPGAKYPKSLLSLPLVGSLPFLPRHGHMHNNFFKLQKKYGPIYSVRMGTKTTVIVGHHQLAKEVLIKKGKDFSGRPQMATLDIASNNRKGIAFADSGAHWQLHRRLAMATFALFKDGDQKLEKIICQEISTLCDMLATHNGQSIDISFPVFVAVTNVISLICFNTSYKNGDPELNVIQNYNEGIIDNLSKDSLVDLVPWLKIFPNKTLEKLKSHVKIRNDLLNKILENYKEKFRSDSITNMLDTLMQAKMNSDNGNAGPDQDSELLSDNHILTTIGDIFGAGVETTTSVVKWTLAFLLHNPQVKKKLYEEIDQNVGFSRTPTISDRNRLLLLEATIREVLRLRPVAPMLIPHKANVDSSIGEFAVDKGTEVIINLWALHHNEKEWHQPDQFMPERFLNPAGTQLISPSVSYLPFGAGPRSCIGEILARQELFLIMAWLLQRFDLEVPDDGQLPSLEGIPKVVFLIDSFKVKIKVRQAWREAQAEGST
- Experiment summary: 17,20 lyase (CYP17) inhibition, acetic acid release assay (AARA) on H295R cells
- Type: cell-based
- Protocol conditions: human H295R adrenocortical carcinoma cells; overnight (16-19 h) with 17α-[21-3H]hydroxypregnenolone; 3H-acetic acid release; 1% DMSO; quadruplicates; read-out: CYP17 inhibition IC50
Give bare numbers, in nM.

Lab note: each molecule below needs its IC50 filled in.
1. CN(c1ccc(C#N)c(C(F)(F)F)c1)C1CC(n2ccnc2)CCC1(C)C (single isomer, unassigned) [Ex. 47 cis-enantiomer 3]
2. CCN(c1ccc(C#N)c(C(F)F)c1)C1C=C(n2ccnc2)CCC1(C)C (single isomer, unassigned) [Ex. 31 enantiomer 1]
3. CN(c1ccc(C#N)c(C(F)(F)F)n1)C1C=C(n2ccnc2)CCC1(C)C (centres unmarked) [Ex. 250]
4. CN(c1ccc(C#N)c(C(F)(F)F)c1)C1C(O)C(c2c[nH]cn2)=CCC1(C)C (single isomer, unassigned) [Ex. 245]
5. CCN(c1ccc(C#N)c(Cl)c1)C1CC=C(c2c[nH]cn2)C1 (centres unmarked) [Ex. 133]
6. CN(c1ccc(C#N)c(C(F)F)c1)C1C=C(n2ccnc2)CCC1(C)C (single isomer, unassigned) [Ex. 240(b)]
7. CCN(c1ccc(C#N)c(C(F)(F)F)c1)C1CCCC(c2cnc[nH]2)C1 (stereo not drawn) [Ex. 224 cis-diasteromer]
8. CCN(c1ccc(C#N)c(C(F)(F)F)c1)C1CCC=C(c2cccnc2)C1(C)C (centres unmarked) [Ex. 97]

## Result
18
23
27
97
7
33
59
66

* * *

- Tgt: full-length human AR (Homo sapiens, UniProt P10275)
- Construct: expression vector encoding full-length human AR
- Experiment summary: AR antagonism, reporter gene assay in hAR/HEK293 cells
- Protocol conditions: HEK293 cells stably transfected with full-length human AR and androgen responsive luciferase reporter; co-treated with submaximal testosterone (usually 0.45 nM); 1% DMSO; triplicates
Give pIC50 for every item shown.
Give bare numbers, as −log10 of the molar value.

Some compounds with known pIC50 results, for comparison:
CN(c1ccc(C#N)c(Cl)c1)[C@@H]1C=C(n2ccnc2)[C@H](O)CC1(C)C (single isomer, unassigned; enantiomer 1) [Ex. 253(b)] | 6.85
CCN(c1ccc(C#N)c(C(F)(F)F)c1)C1CCC=C(c2ccncc2)C1 (stereo not drawn) [Ex. 77] | 7.40
CCN(c1ccc(C#N)c(C(F)(F)F)c1)C1CCCC(n2ccnc2)C1 (single isomer, unassigned) [Ex. 72 cis-enantiomer 2] | 7.57

Return reported pIC50 values for all items listed beneath this line.
1. CCn1cncc1C1=CCC(N(CC2CC2)c2ccc(C#N)c(C(F)(F)F)c2)C1 (racemic) [Ex. 226 racemate]
2. COc1cc(N(C)C2C=C(n3ccnc3)CCC2(C)C)ccc1C#N (stereo not drawn) [Ex. 252]
3. CCN(c1ccc(C#N)c(Cl)c1)C1C=C(n2ccnc2)CCC1(C)C (single isomer, unassigned; enantiomer 1) [Ex. 21]
4. CCN(c1ccc(C#N)c(C(F)(F)F)c1)C1CC(CO)=C(n2ccnc2)C1(C)C (single isomer, unassigned) [Ex. 270 enantiomer 1]

## Result
1: 7.54; 2: 6.85; 3: 7.72; 4: 7.25

# return pIC50 for each item in the list
1. CN(c1ccc(C#N)c(C(F)(F)F)c1)[C@@H]1C=C(n2ccnc2)[C@H](O)CC1(C)C (relative stereo) [Ex. 236]
2. CN(c1ccc(C#N)c(C(F)(F)F)n1)C1C=C(n2ccnc2)CCC1(C)C (stereo not drawn) [Ex. 250]

## Result
[6.91, 6.69]

Value source: patent US9890139B2
